System: mice exposed to radiant heat stimulus on the tail
Experiment: animal or person
Type: in vivo, male mice (Charles River, CF-1/CD)
Settings: Mus musculus, po, read-out: ED50 Tail Flick Oral
# reported ED50; entries follow
Field: numeric (mg/kg). Do not append units.

Below are worked cases with known answers.
CC(=O)c1ccc2c(c1)[C@@]13CCCC[C@H]1[C@@H](C2)N(C)CC3.O=C(O)C(O)C(O)C(=O)O : 2
CC(=O)c1ccc2c(c1)[C@@]13CCCC[C@H]1[C@@H](C2)N(CC=C(C)C)CC3.O.O=C(O)C(O)C(O)C(=O)O : 115

From here, focus on the item given below.
What does the record list as ED50 for CC(=O)c1ccc2c(c1)C[C@@H]1[C@@H]3CCCC[C@]23CCN1C.O=C(O)C(O)C(O)C(=O)O ?
75
